Target: Glucagon-like peptide 1 receptor (Homo sapiens)
Sequence (P43220 whole entry): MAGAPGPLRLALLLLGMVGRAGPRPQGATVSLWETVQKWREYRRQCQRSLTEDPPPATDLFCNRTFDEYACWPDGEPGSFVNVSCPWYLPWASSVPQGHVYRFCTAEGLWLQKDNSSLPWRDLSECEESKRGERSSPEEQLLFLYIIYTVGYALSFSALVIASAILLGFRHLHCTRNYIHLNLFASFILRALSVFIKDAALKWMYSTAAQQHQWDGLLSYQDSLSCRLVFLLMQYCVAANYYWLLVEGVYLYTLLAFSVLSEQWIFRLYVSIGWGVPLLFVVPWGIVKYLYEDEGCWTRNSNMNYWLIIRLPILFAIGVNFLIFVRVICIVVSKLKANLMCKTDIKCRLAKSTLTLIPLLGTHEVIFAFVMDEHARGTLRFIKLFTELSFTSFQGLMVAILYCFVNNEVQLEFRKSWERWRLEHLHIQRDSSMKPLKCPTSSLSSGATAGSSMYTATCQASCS
Assay: Agonist activity at N-terminal hemagglutinin-tagged human GLP-1R expressed in CHO cells co-transfected with pcDNA3.0 assessed as increase in intracellular cAMP accumulation incubated for 30 mins by microplate reader analysis
Assay type: functional, cell-based
readout: EC50 (nM)

> print(dat)
                           smiles.structure                            assayed.target  unit.text  assay.value
1  Cn1ncc2ccc(Cc3cccc(OC4CCN(Cc5nc6ccc(C(=O)O)nc6n5C[C@@H]5CCO5)CC4)n3)c(F)c21  Glucagon-like peptide 1 receptor (Homo sapiens)         nM          102
2  O=C(O)c1cc2c(nc(CN3CCC(Oc4cccc(Cc5ccccc5F)n4)CC3)n2C[C@@H]2CCO2)s1  Glucagon-like peptide 1 receptor (Homo sapiens)         nM           81
3  O=C(O)c1ccc2nc(CN3CCC(Oc4cccc(COc5cc(Cl)c6occc6c5)n4)CC3)n(C[C@@H]3CCO3)c2n1  Glucagon-like peptide 1 receptor (Homo sapiens)         nM         3.62
4  COc1ccc(C(F)(F)F)cc1OCc1nccc(OC2CCN(Cc3nc4sc(C(=O)O)cc4n3C[C@@H]3CCO3)CC2)n1  Glucagon-like peptide 1 receptor (Homo sapiens)         nM         19.4
